Attribution: patent US20240317756A1

molecular target: FGR (Homo sapiens (Human), UniProt P09769)
Sequence (P09769 whole entry, species assumed): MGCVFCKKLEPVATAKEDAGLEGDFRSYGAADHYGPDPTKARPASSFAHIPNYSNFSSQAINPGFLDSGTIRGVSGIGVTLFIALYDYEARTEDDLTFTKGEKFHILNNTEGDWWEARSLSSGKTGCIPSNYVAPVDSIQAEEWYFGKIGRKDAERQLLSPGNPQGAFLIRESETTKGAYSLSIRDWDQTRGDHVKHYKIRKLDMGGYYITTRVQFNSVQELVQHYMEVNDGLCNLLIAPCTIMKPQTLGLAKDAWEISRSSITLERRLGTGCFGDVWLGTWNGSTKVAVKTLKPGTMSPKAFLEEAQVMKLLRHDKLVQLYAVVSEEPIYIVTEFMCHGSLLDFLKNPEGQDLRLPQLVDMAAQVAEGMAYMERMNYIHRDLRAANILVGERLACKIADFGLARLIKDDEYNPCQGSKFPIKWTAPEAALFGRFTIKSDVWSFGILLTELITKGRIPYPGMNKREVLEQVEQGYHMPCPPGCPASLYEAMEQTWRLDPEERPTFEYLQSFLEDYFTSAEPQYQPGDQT
readout_label: IC50 (nM)
Hi! Could you send only the number? It should be in nM, unit omitted.

Query: Look at this compound and give its reported IC50. C=CC(=O)N[C@H]1CC[C@@H](n2nc(-c3ccc(Oc4ccccc4)cc3)c3c(N)ncnc32)CC1 [Compound 9]
Reply: 0.4

====

target: BLK (Homo sapiens (Human))
Sequence (P51451 whole entry, species assumed): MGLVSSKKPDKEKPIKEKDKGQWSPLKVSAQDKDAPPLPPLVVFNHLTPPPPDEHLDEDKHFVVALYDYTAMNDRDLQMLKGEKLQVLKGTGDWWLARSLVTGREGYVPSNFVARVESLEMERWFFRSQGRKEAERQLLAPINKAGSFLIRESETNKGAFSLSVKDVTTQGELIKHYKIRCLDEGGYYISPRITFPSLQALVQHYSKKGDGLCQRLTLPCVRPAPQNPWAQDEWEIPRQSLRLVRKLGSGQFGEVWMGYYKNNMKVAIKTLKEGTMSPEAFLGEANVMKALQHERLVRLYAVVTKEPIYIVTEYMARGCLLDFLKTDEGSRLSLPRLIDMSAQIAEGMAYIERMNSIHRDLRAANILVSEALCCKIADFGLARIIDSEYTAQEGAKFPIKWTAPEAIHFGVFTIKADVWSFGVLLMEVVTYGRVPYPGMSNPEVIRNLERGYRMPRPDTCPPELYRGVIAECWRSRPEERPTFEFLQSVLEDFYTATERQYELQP
readout_label: IC50 (nM)
Hi! Could you send only the number? It should be in nM, unit omitted.

Query: Give IC50 (BLK (Homo sapiens (Human))) of the following compound: C=CC(=O)N[C@H]1CC[C@@H](n2nc(-c3ccc(Oc4ccccc4)cc3)c3c(N)ncnc32)CC1
Reply: 0.2
